Data origin: the supplement of paper PMC10567573

B1: NP_116010.1 (parent)
chain: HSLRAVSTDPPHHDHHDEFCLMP

- Variants of: B1
- Protocol Summary: protein stability index of a GFP-peptide fusion (GPS, HEK-293T) (PSI 1-6); higher = more stable;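 further: lentivirally expressed fusion library, cells FACS-sorted into six equal-sized GFP/DsRed ratio bins, PSI computed from sequencing read fractions per bin weighted by bin number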
- Measurement Setup: c terminus: native
Recorded Metric: protein stability index
Just the number.

Some solved cases for reference:
Sequence Variant: D9R
Recorded Metric: protein stability index
Recorded Number: 2.2

Sequence Variant: E18K
Recorded Metric: protein stability index
Recorded Number: 1.95

Sequence Variant: S7W
Recorded Metric: protein stability index
Recorded Number: 2.31

Sequence Variant: H1K
Recorded Metric: protein stability index
Recorded Number: 3.29

Sequence Variant: A5D
Recorded Metric: protein stability index
Recorded Number: 3.02

protein stability index in this record for `E18R` : 2.35

protein stability index in this record for `S2W` : 1.9

protein stability index in this record for `R4W` : 2.38

protein stability index in this record for `H1Q` : 3.06

protein stability index in this record for `D14E` : 2.5

protein stability index in this record for `V6L` : 2.35

protein stability index in this record for `F19E` : 2.57

protein stability index in this record for `P11K` : 2.65

protein stability index in this record for `D9F` : 2.44

protein stability index in this record for `D14C` : 2.5

protein stability index in this record for `F19K` : 2.87

protein stability index in this record for `H16N` : 2.81

protein stability index in this record for `S2Y` : 2.5

protein stability index in this record for `D9K` : 2.44

protein stability index in this record for `H1A` : 3.26

protein stability index in this record for `H1E` : 3.5

protein stability index in this record for `D9S` : 2.44

protein stability index in this record for `P11Q` : 2.56

protein stability index in this record for `F19M` : 2.46
